Recorded values, source paper PMC11822212.

compounds and their reported Percent viability
- Tested on: MCC26 cells (VN-MCC)
- assay_details: qHTS cell viability (CellTiter-Glo, 72 h; primary and follow-up small molecule screen)
- Assay type: cell-based, human
- study_conditions: MCC26, 72h, Log (M) -6.76782
Express your answer in %, writing the number without its unit.

compound	Percent viability [%]
O=C(Nc1cccc(Cl)c1)Nc1ncc(CCNc2ncnc3ccsc23)s1 [SNS-314, reference compound]	90.3
CCS(=O)(=O)c1cccc(-c2cc(C(=O)NC3CCN(C)CC3)c(C)c3[nH]c4ncc(C)cc4c23)c1 [TAK-901, reference compound]	64.5
Cc1cc(Nc2cc(N3CCN(C)CC3)nc(Sc3ccc(NC(=O)C4CC4)cc3)n2)[nH]n1 [Tozasertib, reference compound]	87.3

Please turn your attention to the following entry.
Look up Percent viability for this compound: CCn1cc(-c2ccnc3[nH]c(-c4cccc(CN(C)C)c4)cc23)c(-c2ccc(NC(=O)N(C)C)cc2)n1 [GSK-1070916A, reference compound] 75.5

###

- Test system: MCC26 cells (VN-MCC)
- assay_details: qHTS cell viability (CellTiter-Glo, 72 h; primary and follow-up small molecule screen)
- Format: cell-based, human
- study_conditions: MCC26, 72h, Log (M) -7.72207
readout: Percent viability (%)
Express your answer in %, writing the number without its unit.

// worked examples, Percent viability included
compound	assay_target	unit_tag	Percent viability
CCS(=O)(=O)c1cccc(-c2cc(C(=O)NC3CCN(C)CC3)c(C)c3[nH]c4ncc(C)cc4c23)c1 [TAK-901, reference compound]	MCC26 cells (VN-MCC)	%	93.5
Cc1cc(Nc2cc(N3CCN(C)CC3)nc(Sc3ccc(NC(=O)C4CC4)cc3)n2)[nH]n1 [Tozasertib, reference compound]	MCC26 cells (VN-MCC)	%	87.4
CCn1cc(-c2ccnc3[nH]c(-c4cccc(CN(C)C)c4)cc23)c(-c2ccc(NC(=O)N(C)C)cc2)n1 [GSK-1070916A, reference compound]	MCC26 cells (VN-MCC)	%	92.0

Please turn your attention to the following entry.
Look up Percent viability for this compound: O=C(Nc1cccc(Cl)c1)Nc1ncc(CCNc2ncnc3ccsc23)s1 [SNS-314, reference compound] 97.6

###

compounds and their reported HACAT_AUC
- Test system: HACAT cells
- assay_details: qHTS cell viability (CellTiter-Glo, 72 h; primary screen), control cell line
- Format: cell-based, human

Look up HACAT_AUC for this compound: `CC(=O)OC1(c2ccccc2)CCN(CCc2ccccc2)CC1` 477.567

Look up HACAT_AUC for this compound: `COc1cc(CCN)c(OC)cc1Br.Cl` 486.493

Look up HACAT_AUC for this compound: CC(C)CN(C[C@@H](O)[C@H](Cc1ccccc1)NC(=O)O[C@H]1CO[C@H]2OCC[C@H]21)S(=O)(=O)c1ccc(N)cc1 [Darunavir] 465.16

###

- Tested on: MKL-1 cells (VP-MCC)
- assay_details: qHTS cell viability (CellTiter-Glo, 72 h; primary and follow-up small molecule screen)
- Format: cell-based, human
- study_conditions: MKL1, 72h, Log (M) -7.72207
compounds and their reported Percent viability
Express your answer in %, writing the number without its unit.

compound	unit_tag	recorded_value
Cc1cc(Nc2cc(N3CCN(C)CC3)nc(Sc3ccc(NC(=O)C4CC4)cc3)n2)[nH]n1 [Tozasertib, reference compound]	%	37.5
CCn1cc(-c2ccnc3[nH]c(-c4cccc(CN(C)C)c4)cc23)c(-c2ccc(NC(=O)N(C)C)cc2)n1 [GSK-1070916A, reference compound]	%	28.8
CCS(=O)(=O)c1cccc(-c2cc(C(=O)NC3CCN(C)CC3)c(C)c3[nH]c4ncc(C)cc4c23)c1 [TAK-901, reference compound]	%	48.2

Please turn your attention to the following entry.
Give the reported Percent viability for O=C(Nc1cccc(Cl)c1)Nc1ncc(CCNc2ncnc3ccsc23)s1 [SNS-314, reference compound] (system: MKL-1 cells (VP-MCC)). 28.2

###

- Test system: MKL-2 cells (VP-MCC)
- assay_details: qHTS cell viability (CellTiter-Glo, 72 h; primary and follow-up small molecule screen)
- Type: cell-based, human
- study_conditions: MKL2, 72h, Log (M) -6.2907
readout: Percent viability (%)
Express your answer in %, writing the number without its unit.

molecule	recorded_value
CCS(=O)(=O)c1cccc(-c2cc(C(=O)NC3CCN(C)CC3)c(C)c3[nH]c4ncc(C)cc4c23)c1 [TAK-901, reference compound]	44.7
Cc1cc(Nc2cc(N3CCN(C)CC3)nc(Sc3ccc(NC(=O)C4CC4)cc3)n2)[nH]n1 [Tozasertib, reference compound]	74.7
O=C(Nc1cccc(Cl)c1)Nc1ncc(CCNc2ncnc3ccsc23)s1 [SNS-314, reference compound]	56.2

Please turn your attention to the following entry.
Look up Percent viability for this molecule: CCn1cc(-c2ccnc3[nH]c(-c4cccc(CN(C)C)c4)cc23)c(-c2ccc(NC(=O)N(C)C)cc2)n1 [GSK-1070916A, reference compound] 21.5

###

compounds and their reported Percent viability
- Test system: UISO cells (VN-MCC)
- assay_details: qHTS cell viability (CellTiter-Glo, 72 h; primary and follow-up small molecule screen)
- Assay type: cell-based, human
- study_conditions: UISO, 72h, Log (M) -7.24494
Express your answer in %, writing the number without its unit.

// worked examples, Percent viability included
compound	Percent viability, %
Cc1cc(Nc2cc(N3CCN(C)CC3)nc(Sc3ccc(NC(=O)C4CC4)cc3)n2)[nH]n1 [Tozasertib, reference compound]	74.4
O=C(Nc1cccc(Cl)c1)Nc1ncc(CCNc2ncnc3ccsc23)s1 [SNS-314, reference compound]	93.3
CCn1cc(-c2ccnc3[nH]c(-c4cccc(CN(C)C)c4)cc23)c(-c2ccc(NC(=O)N(C)C)cc2)n1 [GSK-1070916A, reference compound]	86.6

Please turn your attention to the following entry.
Look up Percent viability for this compound: CCS(=O)(=O)c1cccc(-c2cc(C(=O)NC3CCN(C)CC3)c(C)c3[nH]c4ncc(C)cc4c23)c1 [TAK-901, reference compound] 65.2

###

compounds and their reported VN-MCC_Avg_AUC
- System: VN-MCC cell lines (MCC13, MCC26, UISO)
- assay_details: qHTS cell viability, VN-MCC cell lines as a group (mean AUC, VN.MCC.avg)
- Format: cell-based, human
Reply briefly: the number, and no unit.

// worked examples, VN-MCC_Avg_AUC included
compound	recorded_value
CCN(CC)CCc1c[nH]c2ccccc12.O=C(O)/C=C/C(=O)O [N,N-Diethyltryptamine fumarate]	415.93
CN(C)C(=O)Nc1ccc(Cl)c(Cl)c1 [Diuron]	460.449

Give the reported VN-MCC_Avg_AUC for CCC(=O)O[C@@H]1C=C2CCC3C(CCC4(C)C3CC[C@@H]4OC(=O)CC)C2CC1 (stereo partly drawn) [Bolandiol dipropionate] (system: VN-MCC cell lines (MCC13, MCC26, UISO)). 496.011

###

- System: VP-MCC cell lines (WAGA, MKL-1, MKL-2)
- assay_details: qHTS cell viability, VP-MCC cell lines as a group (mean AUC, VP.MCC.avg)
- Format: cell-based, human
- study_conditions: NPC library; therapeutic window: Control avg AUC minus VP-MCC avg AUC
Counter-ions that a name gives are not always drawn.
molecules and their reported Control-VP-MCC
Reply briefly: the number, and no unit.

molecule	Control-VP-MCC
C#C[C@]1(OC(C)=O)CC[C@H]2[C@@H]3CCC4=CC(=NO)CC[C@@H]4[C@H]3CC[C@@]21CC (mixture of isomers) [Norgestimate]	61.2604
CC[N+]1(CC)CCC(=C(c2ccccc2)c2ccccc2)C1C (centres unmarked) [Prifinium bromide]	53.5255
Cc1ccsc1C(=CCCN1CCC[C@@H](C(=O)O)C1)c1sccc1C [Tiagabine hydrochloride]	136.666
c1ccc(CC2=NCCN2)cc1 [Tolazoline hydrochloride]	51.4641

Please turn your attention to the following entry.
Give the reported Control-VP-MCC for CC[N+](CC)(CC)CCOC(=O)C(C1CCCC1)C1CCCC1 [Diponium bromide] (system: VP-MCC cell lines (WAGA, MKL-1, MKL-2)). 53.0478

###

- Test system: MKL-1 cells (VP-MCC)
- assay_details: qHTS cell viability (CellTiter-Glo, 72 h; primary and follow-up small molecule screen)
- Assay type: cell-based, human
compounds and their reported Area under the dose-response curve (AUC) MKL-1 Replicate 3

// worked examples, Area under the dose-response curve (AUC) MKL-1 Replicate 3 included
compound	recorded_value
CN(C)c1ccc(C(=C2C=CC(=[N+](C)C)C=C2)c2ccccc2)cc1.CN(C)c1ccc(C(=C2C=CC(=[N+](C)C)C=C2)c2ccccc2)cc1.O=C(O)C(=O)O.O=C([O-])C(=O)O.O=C([O-])C(=O)O [Malachite green oxalate]	280.5
O[C@H]1[C@H]2[C@H](O)CCCN2C[C@H]1O [Swainsonine]	455.2

Please turn your attention to the following entry.
Look up Area under the dose-response curve (AUC) MKL-1 Replicate 3 for this compound: CCCCCCCCC(=O)NCc1ccc(O)c(OC)c1 [Nonivamide] 491.3
